Here, each record is paired with measured Kd data.
molecular target: T1, cynomolgus PD-1 (#PD1-C52H5, AcroBiosystems) (cynomolgus monkey, UniProt B0LAJ3 25-170); test: SPR, PD-1 on captured IgG1
T1 construct: bought; also called cynomolgus monkey PD-1; not shown: the vendor's tag on the recombinant protein (AcroBiosystems #PD1-C52H5)
T1 sequence (B0LAJ3 entry or part of it limits assumed, form in doubt): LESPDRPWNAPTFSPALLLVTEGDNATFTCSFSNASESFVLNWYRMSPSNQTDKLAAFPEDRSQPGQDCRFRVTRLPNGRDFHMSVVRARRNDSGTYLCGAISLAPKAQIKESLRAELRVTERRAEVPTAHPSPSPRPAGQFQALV

>  <BINDER>
KOB135 (antibody, human IgG1, V domains shown, human IgG1) VH: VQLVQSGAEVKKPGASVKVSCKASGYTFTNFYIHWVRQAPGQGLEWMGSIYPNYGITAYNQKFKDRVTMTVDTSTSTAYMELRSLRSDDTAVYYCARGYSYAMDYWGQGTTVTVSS VL: DIQMTQSPSSVSASVGDRVTITCSASQGISGDLNWYQQKPGKAPKLLIYHTSQQHSDVPSRFSGSGSGTDFTLTISSLQPEDFATYYCQGYSKDLLTFGGGTKLEIK

>  <READING UNIT>
nM

>  <Kd>
0.362

$$$$
>  <BINDER>
QGA408 (antibody, human IgG1, V domains shown, human IgG1) VH: VQLVQSGAEVKKPGASVKVSCKASGYTFTNFYIHWVRQAPGQGLEWMGSIYPNYGITAFNQKFKDRVTMTVDTSTSTAYMELRSLRSDDTAVYYCARGYSYAMDYWGQGTTVTVSS VL: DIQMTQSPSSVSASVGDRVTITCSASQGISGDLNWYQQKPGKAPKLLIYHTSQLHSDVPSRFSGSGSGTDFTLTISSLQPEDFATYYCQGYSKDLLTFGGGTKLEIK

>  <READING UNIT>
nM

>  <Kd>
0.328

$$$$
>  <BINDER>
XVT458-z2-m6 (antibody, human IgG1, V domains shown, human IgG1; also called anti-PD-1 antibody clone XVT458-z2-m6) VH: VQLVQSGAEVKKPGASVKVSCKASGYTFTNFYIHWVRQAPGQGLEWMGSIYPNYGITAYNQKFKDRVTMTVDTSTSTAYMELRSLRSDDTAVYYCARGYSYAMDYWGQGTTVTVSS VL: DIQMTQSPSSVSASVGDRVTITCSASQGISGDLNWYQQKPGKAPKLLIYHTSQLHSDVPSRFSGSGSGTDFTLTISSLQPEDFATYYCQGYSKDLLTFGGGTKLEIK

>  <READING UNIT>
nM

>  <Kd>
0.306

$$$$
